# Tested on: HEK-293T
# experimentSummary: Multiplex assay against HEK293T
# Type: toxicity, cell-based
# conditionDescription: human, 12 h, 10 µM, compound concentration 10 uM, replicate 2
Could you please mark class 1 for values of Population Pyknosed Nuclei (%) below 20% and class 0 for values at or above it?

Population Pyknosed Nuclei (%) strictly < 20% for this molecule? COc1c(C)cc(NC(=O)c2nn(Cc3ccc(F)cc3)c3c2CN(C(=O)c2ccc[nH]2)C[C@]3(C)C(N)=O)cc1C
class 0

Population Pyknosed Nuclei (%) strictly < 20% for this molecule? O=C(O)Cc1ccccc1Nc1c(Cl)cccc1Cl
class 1

Population Pyknosed Nuclei (%) strictly < 20% for this molecule? O=C(NCC(=O)N1CC[C@H](N[C@H]2CC[C@@](O)(c3ccc(-c4ncccn4)cn3)CC2)C1)c1cccc(C(F)(F)F)c1
class 1

Population Pyknosed Nuclei (%) strictly < 20% for this molecule? O=C(NCCO)c1cccc(-c2cc(Nc3ccc(OC(F)(F)F)cc3)ncn2)c1
class 0

Population Pyknosed Nuclei (%) strictly < 20% for this molecule? CN1CCN(c2nc3cc(C(F)(F)F)ccc3n3cccc23)CC1.O=C(O)/C=C\C(=O)O.O=C(O)/C=C\C(=O)O
class 1

Population Pyknosed Nuclei (%) strictly < 20% for this molecule? CN(C)c1ccnc2sc3c(=O)n(N4CCCCCC4)cnc3c12
class 1

Population Pyknosed Nuclei (%) strictly < 20% for this molecule? CSc1ccccc1N1CCN(CCCCCC(=O)NC2CCCc3ccccc32)CC1.Cl (centres undefined)
class 1

Population Pyknosed Nuclei (%) strictly < 20% for this molecule? Cc1ccccc1C(=O)Nc1ccc(C(=O)N2CCCC(N(C)C)c3ccccc32)cc1.Cl (centres undefined)
class 1

Population Pyknosed Nuclei (%) strictly < 20% for this molecule? CCOc1c2c(c(OCC)c3ncccc13)CN(c1ccc(CS(=O)(=O)NC(=O)Cc3ccccc3OC)cc1C)C2=O
class 1

Population Pyknosed Nuclei (%) strictly < 20% for this molecule? CCNC1(C(N)=O)CCN(c2ncnc3c2nc(-c2ccccc2Cl)n3-c2ccc(Cl)cc2)CC1
class 0

Population Pyknosed Nuclei (%) strictly < 20% for this molecule? O=C1COc2nccc(-c3ccccc3F)c2CN1Cc1cc(C(F)(F)F)cc(C(F)(F)F)c1
class 1

Population Pyknosed Nuclei (%) strictly < 20% for this molecule? Cc1ccc(/C(=C\CN2CCCC2)c2ccccn2)cc1
class 1

Population Pyknosed Nuclei (%) strictly < 20% for this molecule? COc1cc(NC(=O)CCN2CCC(OC(=O)Nc3ccccc3-c3ccccc3)CC2)c(Cl)cc1CNC[C@H](O)c1ccc(O)c2[nH]c(=O)ccc12
class 0

Population Pyknosed Nuclei (%) strictly < 20% for this molecule? c1cc(OCCCN2CCCCC2)ccc1CN1CCCCC1
class 0

Population Pyknosed Nuclei (%) strictly < 20% for this molecule? CN(C)CCCc1cc(C(=O)Nc2ccc(-c3ccncc3)cc2)ccc1O.Cl.Cl
class 1

Population Pyknosed Nuclei (%) strictly < 20% for this molecule? CNC[C@H](O)c1ccc(O)c(O)c1 [EPINEPHRINE]
class 0

Population Pyknosed Nuclei (%) strictly < 20% for this molecule? CC1(COc2ccc3c(c2)ncn3-c2ccc3cccc(N4CCC(N)CC4)c3n2)COC1
class 1

Population Pyknosed Nuclei (%) strictly < 20% for this molecule? C[C@H](NC(=O)c1c(C(F)F)nn(C)c1Oc1cccc(C(F)(F)F)c1)c1ccc(C(=O)O)cc1
class 1
